Data credit: ChEMBL document CHEMBL1201862

# Test system: RXF 393
# experimental-protocol: NCI tumour cell line growth inhibition, 48 h
The source made the active and inactive calls. Rule as the data show it: active = GI50 up to about 1.1 µM and inactive = higher.
Outcome codes: active, inactive

molecule	target-desc	class-label
CN1Cc2cc(O)c(O)cc2C(O)C1 (configuration not stated)	RXF 393	inactive
COc1ccc(/C=C/C(=N\NC(=O)c2ccccc2)c2sc(Nc3ccc([N+](=O)[O-])cc3)nc2C)cc1OC	RXF 393	inactive
CC(=O)OCCCC(NC(=O)OC(C)(C)C)C(=O)NC(CCCOC(C)=O)C(=O)NC(Cc1ccc([N+](=O)[O-])cc1)C(=O)NCC(=O)OCc1ccccc1 (configuration not stated)	RXF 393	inactive
NC(=O)Nc1ccc(S(=O)(=O)Nc2ccc(S(N)(=O)=O)cc2)cc1	RXF 393	inactive
c1ccc(-c2nnc(-c3ccccn3)c3c2C[C@@H]2C[C@@H]4Cc5c(-c6ccccn6)nnc(-c6ccccn6)c5[C@@H]4[C@H]32)nc1	RXF 393	inactive
CC1(C)[C@@H]2C[C@H]1c1cnc(-c3ccccn3)cc1C2[C@@H]1c2cc(-c3ccccn3)ncc2[C@@H]2C[C@H]1C2(C)C (some centres not stated)	RXF 393	inactive
CC(C)(CC1(C)NC(=O)NC1=O)OCc1ccccc1 (configuration not stated)	RXF 393	inactive
c1ccc(C2=Nn3c(CCCCCCCCc4nnc5n4N=C(c4ccccc4)CS5)nnc3SC2)cc1	RXF 393	inactive
Cc1ccc(C(=O)c2[nH]c(Nc3cc(C)ccn3)c(C(=S)Nc3ccccc3)c2N)cc1	RXF 393	inactive
N=c1ccn2c(n1)OC1C(OP(=O)(O)O)C(CO)OC12 (configuration not stated)	RXF 393	inactive
Cc1ccc([S+]([O-])c2ccccc2[N+](=O)[O-])cc1 (configuration not stated)	RXF 393	inactive
C[P+](C)(C)c1ccccc1	RXF 393	inactive
CC(C)OC(=O)c1cc(NC(=S)OC(C)C)ccc1Cl	RXF 393	inactive
CCCCCC(=O)OC[n+]1ccc2c(C)c3[nH]c4ccc(OC)cc4c3c(C)c2c1	RXF 393	active
O=C1Nc2ccccc2/C1=C1/Nc2ccccc2/C1=N\OCCNCC(O)C(O)C(O)C(O)CO (configuration not stated)	RXF 393	inactive
CC1(C)CC(C2=NCCO2)CC(C)(C)N1	RXF 393	inactive
CN(CCCNCc1ccccn1)Cc1ccccc1O	RXF 393	inactive
